Data origin: ChEMBL document CHEMBL3137667

Conditions: human

# COMPOUND, Hepatotoxicity (choleostasis)
records = [
    ("CC(=O)Oc1cc(C(C)C)c(OCCN(C)C)cc1C", 1),
    ("COc1cc(NC(C)CCCN)c2ncccc2c1 (stereo not drawn)", 0),
    ("Cc1cc2c(C(C)C)c(O)c(O)c(C=O)c2c(O)c1-c1c(C)cc2c(C(C)C)c(O)c(O)c(C=O)c2c1O", 0),
    ("C[C@H](C(=O)O)c1ccc2oc(-c3ccc(F)cc3)nc2c1", 0),
    ("CC(/C=N/NC(=N)N)=N\\NC(=N)N", 0),
    ("CCN(CC)CCOc1ccc(C(=C(Cl)c2ccccc2)c2ccccc2)cc1", 1),
    ("CCOC(=O)C(C)(CC)Oc1ccc(Cc2ccc(Cl)cc2)cc1 (stereo not drawn) [BECLOBRATE]", 0),
    ("COc1cccc2c1C(=O)c1c(O)c3c(c(O)c1C2=O)C[C@@](O)(/C(C)=N/NC(=O)c1ccccc1)C[C@@H]3O[C@H]1C[C@H](N)[C@H](O)[C@H](C)O1", 1),
]

====

Conditions: human, serum
// label = criterion met if Hepatotoxicity (moderate) is not less than 3, otherwise criterion not met

# MOLECULE, ANSWER_LABEL
records = [
    ("CC(C)/N=c1\\cc2n(-c3ccc(Cl)cc3)c3ccccc3nc-2cc1Nc1ccc(Cl)cc1", "criterion not met"),
    ("CCOC(=O)NNc1nncc2ccccc12", "criterion not met"),
    ("CO/N=C1\\CN(c2nc3c(cc2F)c(=O)c(C(=O)O)cn3C2CC2)CC1CN (centres undefined)", "criterion met"),
    ("CCOP(=O)(OCC)C(C)NC(=O)N(CCCl)N=O (centres undefined)", "criterion met"),
    ("Cc1c(O)cccc1C(=O)N[C@@H](CSc1ccccc1)[C@H](O)CN1C[C@H]2CCCC[C@H]2C[C@H]1C(=O)NC(C)(C)C", "criterion met"),
    ("CNC(=O)c1cccc2c(Nc3ccc(NS(C)(=O)=O)cc3OC)c3cccc(C)c3nc12", "criterion not met"),
    ("O=P1(N(CCCl)CCCl)NCCCO1 (centres undefined) [CYCLOPHOSPHAMIDE ANHYDROUS]", "criterion met"),
]

====

Experiment: Highest frequency of acute liver toxicity observed during clinical trials, expressed as a percentage. [column '% AIGUE' in source]
Conditions: human
*1 amine or outer side, *2 acyl side, *3 side chain or, on linkers, in order; H or OH if unused. Where a SMILES comes first, the peptide text is derived from it. Bridges are numbered along the chain shown (N, C = ends). [ ]: non-standard residue; d: D form. The star is where a group is joined. ξ: configuration not given here. X2 = N=C1NCCC([C@H](N[*:1])C(=O)[*:2])N1; ΔAla(Z-3-ureido) = NC(=O)N/C=C(\N)C(=O)O; ξβ3hOrn = NCCCC(N)CC(=O)*; Dap = NC[C@H](N)C(=O)O

# COMPOUND, UNITS, Hepatotoxicity (acute)
rows = [
    ("CC(CN1c2ccccc2Sc2ccccc21)N(C)C (configuration not stated)", "%", 0),
    ("Nc1ccc(O)c(C(=O)O)c1", "%", 1),
    ("COc1cccc2c1C(=O)c1c(O)c3c(c(O)c1C2=O)C[C@@](O)(/C(C)=N/NC(=O)c1ccccc1)C[C@@H]3O[C@H]1C[C@H](N)[C@H](O)[C@H](C)O1", "%", 17.2),
    ("Cc1c(N)nc([C@@H](CC(N)=O)NC[C@@H](N)C(N)=O)nc1C(=O)N[C@@H](C(=O)N[C@@H](C)[C@H](O)[C@@H](C)C(=O)N[C@H](C(=O)NCCc1nc(-c2nc(C(=O)NCCCN(C)CCCN(Cc3ccc(OCc4ccccc4)c(OCc4ccccc4)c3)Cc3ccc(OCc4ccccc4)c(OCc4ccccc4)c3)cs2)cs1)[C@@H](C)O)C(O[C@H]1O[C@@H](CO)[C@H](O)[C@@H](O)[C@H]1O[C@H]1O[C@@H](CO)[C@@H](O)[C@H](OC(N)=O)[C@@H]1O)c1c[nH]cn1 (some centres not stated)", "%", 0),
    ("O=C1c2ccccc2C(=O)C1c1ccccc1", "%", 0.2),
    ("CN1C[C@H](CC#N)C[C@@H]2c3cccc4[nH]c(Cl)c(c34)C[C@H]21", "%", 15.8),
    ("CO[C@@H]1[C@@H](O[C@@H]2O[C@H](C)[C@@H](O[C@H]3C[C@@](C)(O)[C@@H](OC(=O)CC(C)C)[C@H](C)O3)[C@H](N(C)C)[C@H]2O)[C@@H](CC=O)C[C@@H](C)[C@@H](O)/C=C/C=C/C[C@@H](C)OC(=O)C[C@H]1OC(C)=O", "%", 0),
    ("Nc1ncnc2c1ncn2[C@@H]1O[C@H](CO)[C@@H](O)[C@@H]1O", "%", 0),
    ("CCOC(=O)c1c(N)sc2c1CCN(Cc1ccccc1)C2", "%", 0),
    ("NC(=O)CC[C@@H]1NC(=O)[C@H](Cc2ccccc2)NC(=O)[C@H](Cc2ccc(O)cc2)NC(=O)CCSSC[C@@H](C(=O)N2CCC[C@H]2C(=O)N[C@H](CCCN=C(N)N)C(=O)NCC(N)=O)NC(=O)[C@H](CC(N)=O)NC1=O", "%", 0),
    ("CC[C@]1(O)CC[C@H]2[C@@H]3CCC4=CC(=O)CC[C@@H]4[C@H]3CC[C@@]21C", "%", 0),
    ("CCC(=O)O[C@@H]1CC(=O)O[C@H](C)C/C=C/C=C/[C@H](O)[C@H](C)C[C@H](CC=O)[C@H](O[C@@H]2O[C@H](C)[C@@H](O[C@H]3C[C@@](C)(O)[C@@H](OC(=O)CC)[C@H](C)O3)[C@H](N(C)C)[C@H]2O)[C@H]1OC", "%", 0),
    ("CN(C)CCc1c[nH]c2ccc(C[C@H]3COC(=O)N3)cc12", "%", 0),
    ("Nc1cc([As]2[As](c3ccc(O)c(N)c3)[As](c3ccc(O)c(N)c3)[As](c3ccc(O)c(N)c3)[As]2c2ccc(O)c(N)c2)ccc1O.Nc1cc([As]2[As](c3ccc(O)c(N)c3)[As]2c2ccc(O)c(N)c2)ccc1O (configuration not stated)", "%", 0),
    ("C[C@@H]1NC(=O)[C@@H](N)CNC(=O)[C@H](C2CCNC(=N)N2)NC(=O)/C(=C/NC(N)=O)NC(=O)[C@H](CNC(=O)CC(N)CCCN)NC1=O.N=C1NCCC([C@@H]2NC(=O)/C(=C/NC(N)=O)NC(=O)[C@H](CNC(=O)CC(N)CCCN)NC(=O)[C@H](CO)NC(=O)[C@@H](N)CNC2=O)N1 (stereo partly drawn) [CAPREOMYCIN] (H-[Dap]S[Dap](ξβ3hOrn)[ΔAla(Z-3-ureido)][X2]; lactam 1-C)", "%", 0),
    ("CC1=C(/C=C/C(C)=C/C=C/C(C)=C/C(=O)Nc2ccc(O)cc2)C(C)(C)CCC1 [FENRETINIDE]", "%", 0),
    ("CC(C(=O)O)c1cccc(C(=O)c2ccccc2)c1 (configuration not stated)", "%", 0),
    ("CC/C(=C(/CC)c1ccc(O)cc1)c1ccc(O)cc1", "%", 0),
    ("CCc1cccc2c3c([nH]c12)C(CC)(CC(=O)O)OCC3 (configuration not stated)", "%", 0),
    ("C=C(CC)C(=O)c1ccc(OCC(=O)O)c(Cl)c1Cl", "%", 0),
    ("CC(=O)O[C@@]12CO[C@@H]1C[C@H](O)[C@@]1(C)C(=O)[C@H](O)C3=C(C)[C@@H](OC(=O)[C@H](O)[C@@H](NC(=O)OC(C)(C)C)c4ccccc4)C[C@@](O)([C@@H](OC(=O)c4ccccc4)[C@H]21)C3(C)C.O.O.O", "%", 14.3),
    ("CN[C@@H]1[C@@H](O)[C@@H](O[C@@H]2[C@@H](O)[C@H](O[C@H]3O[C@H](CN)[C@@H](O)[C@H](O)[C@H]3O)[C@@H](N)C[C@H]2NC(=O)[C@@H](O)CN)OC[C@]1(C)O", "%", 0),
]
